# Test system: P. Falciparum NF54
# PROTOCOL_DESCRIPTION: Plasmodium falciparum in vitro assay ([3H]-hypoxanthine incorporation)
# Type: cell-based
# TEST_SETTINGS: Plasmodium falciparum, Erythrocyte, P. Falciparum NF54, erythrocytic stages in human red blood cells, 50% human serum
REPORTED_ENDPOINT: IC50 (nM)

{"COMPOUND": "CN(c1ccc(CN(C(=O)/C=C/c2ccc(C(F)(F)F)cc2)C2CCN(C3CCCC3)CC2)cc1)c1cccnc1 [Example 96]", "UNIT_STRING": "nM", "TEST_VALUE": 351}
{"COMPOUND": "CN(c1ccncc1)c1ccc(CN(C(=O)/C=C/c2ccccc2F)C2CCN(Cc3ccccc3)CC2)cc1 [Example 157]", "UNIT_STRING": "nM", "TEST_VALUE": 190}
{"COMPOUND": "CN(c1ccncc1)c1ccc(CN(C(=O)/C=C/c2ccc(C(F)(F)F)cc2)C2CCN(CCC(F)(F)F)CC2)cc1 [Example 16]", "UNIT_STRING": "nM", "TEST_VALUE": 154}

A = Cc1cc(Nc2ccc(CN(C(=O)/C=C/c3ccc(Cl)cc3)C3CCN(C4CCCC4)CC3)nc2)ccn1 [Example 171]
B = CN(c1ccncc1)c1ccc(CN(C(=O)/C=C/c2ccc(C(F)(F)F)cc2)C2CN(C3CCCC3)C2)cc1 [Example 102]
C = CN(c1ccncc1)c1ccc(CN(C(=O)/C=C/c2ccc(C(F)(F)F)cc2)C2CCC3(CC2)CCN(C2CCCC2)CC3)cc1 [Example 67]
Put the items in sequence by IC50, from largest down. Write the labels in rank order as requested.
A, B, C

----------
# Tested on: P. Falciparum NF54
# PROTOCOL_DESCRIPTION: Plasmodium falciparum in vitro assay ([3H]-hypoxanthine incorporation)
# Format: cell-based
# TEST_SETTINGS: Plasmodium falciparum, Erythrocyte, P. Falciparum NF54, erythrocytic stages in human red blood cells, 50% human serum
pIC50: −log10 of the molar value. Where a name gives a salt, the structure may show the parent alone.
REPORTED_ENDPOINT: pIC50

{"COMPOUND": "CN(c1ccncc1)c1ccc(CN(C(=O)/C=C/c2ccccc2Cl)C2CCN(Cc3ccccc3)CC2)cc1 [Example 154]", "REPORTED_ENDPOINT": "pIC50", "TEST_VALUE": 6.84}
{"COMPOUND": "Cc1ccc(CN2CCC(N(Cc3ccc(N(C)c4ccncc4)cc3)C(=O)/C=C/c3ccc(C(F)(F)F)cc3)CC2)cc1 [Example 12]", "REPORTED_ENDPOINT": "pIC50", "TEST_VALUE": 7.54}
{"COMPOUND": "Cc1cc(Nc2ccc(CN(C(=O)/C=C/c3ccc(C(F)(F)F)cc3)C3CCN(Cc4cncnc4)CC3)cc2)ccn1 [Example 49]", "REPORTED_ENDPOINT": "pIC50", "TEST_VALUE": 6.55}
{"COMPOUND": "CN(C)CCN1CCC(N(Cc2ccc(N(C)c3ccncc3)cc2)C(=O)/C=C/c2ccc(C(F)(F)F)cc2)CC1 [Example 195, formate]", "REPORTED_ENDPOINT": "pIC50", "TEST_VALUE": 7.24}

I = O=C(/C=C/c1ccc(C(F)(F)F)cc1)N(Cc1ccc(-c2ccccn2)cc1)C1CCN(C2CCCC2)CC1 [Example 198]
II = CN(c1ccncc1)c1ccc(CN(C(=O)/C=C/c2ccc(C(F)(F)F)cc2)C2CCN(Cc3ccn4ccnc4c3)CC2)cc1 [Example 25]
III = Cc1cc(Nc2ccc(CN(C(=O)/C=C/c3ccc(C(F)(F)F)cc3)C3CCN(Cc4ccc(O)c(CN(C)C)c4)CC3)cc2)ccn1 [Example 53]
Arrange items by their pIC50 values in increasing order. Write the labels in rank order as requested.
I, II, III
(I: 6.45, II: 7.39, III: 7.92)
